Value source: ChEMBL document CHEMBL1125434

Provide the recorded log10 of MIC for the entries that follow.
- Test system: Klebsiella pneumoniae
- protocol description: In vitro minimum inhibitory concentration against Klebsiella pneumoniae 8045 using brain-heart infusion agar
- Assay type: functional
Please be aware that the numbers have been log10-transformed from MIC in µg/mL.

[ask] Record request: log10 of MIC value, item O=C(O)c1cn(-c2ccc(F)cc2F)c2cc(N3CCC(=NO)CC3)c(F)cc2c1=O
[reply] -0.41

[ask] Return reported log10 of MIC; argument: O=C1CCN(c2c(F)cc3c(=O)c(C(=O)O)cn(C4CC4)c3c2F)C1
[reply] -0.41

[ask] Param item = NC1CCN(c2nc3c(cc2F)c(=O)c(C(=O)O)cn3C2CC2)C1 (stereo not drawn) ; retrieve measured log10 of MIC.
[reply] -2.00

[ask] Which measured log10 of MIC value corresponds to NC1CCN(c2cc3c(cc2F)c(=O)c(C(=O)O)cn3-c2ccc(F)cc2F)CC1 ?
[reply] -1.00

[ask] I am curious: what log10 of MIC value has been reported for O=C1CCN(c2cc3c(cc2F)c(=O)c(C(=O)O)cn3-c2ccc(F)cc2F)C1 ?
[reply] 0.79

[ask] Which log10 of MIC value belongs to CON=C1CCN(c2cc3c(cc2F)c(=O)c(C(=O)O)cn3-c2ccc(F)cc2F)CC1 ?
[reply] 0.49

[ask] Which log10 of MIC value belongs to O=C(O)c1cn(-c2ccc(F)cc2F)c2nc(N3CCC(=NO)CC3)c(F)cc2c1=O ?
[reply] -0.11

[ask] What does the data say about its log10 of MIC? Entry: CO/N=C1/CCN(c2cc3c(cc2F)c(=O)c(C(=O)O)cn3-c2ccc(F)cc2F)C1
[reply] -0.11

[ask] Bench note: what log10 of MIC did O=C(O)c1cn(-c2ccc(F)cc2F)c2cc(N3CC/C(=N/O)C3)c(F)cc2c1=O show?
[reply] -0.70

[ask] So what's the measured log10 of MIC for this one? CO/N=C1\CCN(c2nc3c(cc2F)c(=O)c(C(=O)O)cn3C2CC2)C1
[reply] -1.00

[ask] Entry CON=C1CCN(c2nc3c(cc2F)c(=O)c(C(=O)O)cn3-c2ccc(F)cc2F)CC1 has what log10 of MIC?
[reply] 0.49

[ask] Look up log10 of MIC for this molecule: CO/N=C1\CCN(c2nc3c(cc2F)c(=O)c(C(=O)O)cn3-c2ccc(F)cc2F)C1
[reply] -0.11

[ask] Give its log10 of MIC value. Item: O=C1CCN(c2nc3c(cc2F)c(=O)c(C(=O)O)cn3-c2ccc(F)cc2F)CC1
[reply] -0.41

[ask] Suppose we examine the molecule O=C(O)c1cn(C2CC2)c2c(F)c(N3CCC(=NO)CC3)c(F)cc2c1=O ; what log10 of MIC value has been reported?
[reply] -1.00

[ask] Using the record for NC1CCN(c2nc3c(cc2F)c(=O)c(C(=O)O)cn3-c2ccc(F)cc2F)C1 (stereo not drawn) , report its log10 of MIC.
[reply] -1.70

[ask] Which measured log10 of MIC value corresponds to O=C(O)c1cn(C2CC2)c2c(F)c(N3CC/C(=N\O)C3)c(F)cc2c1=O ?
[reply] -1.30

[ask] What does the record list as log10 of MIC for O=C1CCN(c2cc3c(cc2F)c(=O)c(C(=O)O)cn3C2CC2)C1 ?
[reply] 0.79

[ask] GET /values?readout=log10 of MIC&item= CON=C1CCN(c2c(F)cc3c(=O)c(C(=O)O)cn(C4CC4)c3c2F)CC1
[reply] 0.49

* * *

Consider the following molecules; for each one, report its MIC.
- Tested on: Klebsiella aerogenes
- protocol description: In vitro minimum inhibitory concentration against Enterobacter aerogenes ATCC 13048 using brain-heart infusion agar
- Assay type: functional
Please give a number only; it is taken to be in µg/mL.

[ask] // MIC lookup, key: CO/N=C1\CCN(c2nc3c(cc2F)c(=O)c(C(=O)O)cn3-c2ccc(F)cc2F)C1
[reply] 3.1

[ask] Reported MIC, molecule O=C(O)c1cn(-c2ccc(F)cc2F)c2nc(N3CCC(=NO)CC3)c(F)cc2c1=O : ____
[reply] 3.1

[ask] Which value of MIC has been reported for NC1CCN(c2nc3c(cc2F)c(=O)c(C(=O)O)cn3-c2ccc(F)cc2F)C1 (centres undefined) [TOSUFLOXACIN] in the records?
[reply] 0.05

[ask] I have this molecule here, O=C1CCN(c2c(F)cc3c(=O)c(C(=O)O)cn(C4CC4)c3c2F)C1 , and I need its recorded MIC.
[reply] 1.56

[ask] # query: MIC of entry CO/N=C1\CCN(c2nc3c(cc2F)c(=O)c(C(=O)O)cn3C2CC2)C1
[reply] 0.78

[ask] MIC lookup needed for O=C(O)c1cn(C2CC2)c2nc(N3CC/C(=N\O)C3)c(F)cc2c1=O , thanks.
[reply] 0.2

[ask] Need MIC of O=C(O)c1cn(C2CC2)c2c(F)c(N3CC/C(=N\O)C3)c(F)cc2c1=O , thanks.
[reply] 0.39

[ask] Need MIC, item O=C(O)c1cn(C2CC2)c2c(F)c(N3CCC(=NO)CC3)c(F)cc2c1=O
[reply] 0.39

[ask] Need MIC, item CON=C1CCN(c2nc3c(cc2F)c(=O)c(C(=O)O)cn3-c2ccc(F)cc2F)CC1
[reply] 12.5

[ask] State the recorded MIC for this entry: O=C1CCN(c2cc3c(cc2F)c(=O)c(C(=O)O)cn3C2CC2)C1
[reply] 12.5

[ask] Fill blank: measured MIC of the molecule NC1CCN(c2nc3c(cc2F)c(=O)c(C(=O)O)cn3C2CC2)C1 (centres undefined) is ____.
[reply] 0.02

[ask] Looking for the measured MIC of NC1CCN(c2cc3c(cc2F)c(=O)c(C(=O)O)cn3-c2ccc(F)cc2F)CC1 , can you help?
[reply] 0.39

[ask] Which MIC is listed for O=C(O)c1cn(-c2ccc(F)cc2F)c2cc(N3CCC(=NO)CC3)c(F)cc2c1=O ?
[reply] 3.1

[ask] Data request, read-out MIC, for O=C1CCN(c2nc3c(cc2F)c(=O)c(C(=O)O)cn3-c2ccc(F)cc2F)CC1
[reply] 3.1

[ask] // query MIC value for entry CO/N=C1/CCN(c2cc3c(cc2F)c(=O)c(C(=O)O)cn3-c2ccc(F)cc2F)C1
[reply] 3.1

[ask] I would be grateful if you could share the reported MIC for O=C(O)c1cn(-c2ccc(F)cc2F)c2cc(N3CC/C(=N/O)C3)c(F)cc2c1=O .
[reply] 0.78

[ask] Consider the molecule shown here: O=C1CCN(c2cc3c(cc2F)c(=O)c(C(=O)O)cn3-c2ccc(F)cc2F)C1 What is its recorded MIC?
[reply] 12.5

* * *

- Tested on: Staphylococcus aureus
- protocol description: In vivo antibacterial activity against Staphylococcus aureus NCTC 10649 infected mouse by oral administration
- Type: functional
observed property: ED50 (mg/kg)
Write the number in mg/kg without appending the unit.

[ask] Name the reported ED50 value associated with the compound O=C(O)c1cn(C2CC2)c2c(F)c(N3CC/C(=N\O)C3)c(F)cc2c1=O
[reply] 3

[ask] Looking for the measured ED50 of O=C(O)c1cn(C2CC2)c2cc(N3CCNCC3)c(F)cc2c1=O [CIPROFLOXACIN] , can you help?
[reply] 15.5

* * *

- Tested on: Staphylococcus aureus
- protocol description: In vivo antibacterial activity against Staphylococcus aureus NCTC 10649 infected mouse by subcutaneous administration
- Assay type: functional
- setup conditions: sc
Mark Met only for ED50 values smaller than 3 mg/kg; exact matches and larger values are Not met.

[ask] Does CO/N=C1\CCN(c2nc3c(cc2F)c(=O)c(C(=O)O)cn3-c2ccc(F)cc2F)C1 have ED50 strictly under 3 mg/kg?
[reply] Not met

[ask] Hello, I'm reviewing records and need to know if ED50 of O=C(O)c1cn(C2CC2)c2c(F)c(N3CC/C(=N\O)C3)c(F)cc2c1=O is below 3 mg/kg. Could you check?
[reply] Met

[ask] Strictly below 3 mg/kg in ED50? O=C(O)c1cn(C2CC2)c2cc(N3CCNCC3)c(F)cc2c1=O
[reply] Met

[ask] Strictly below 3 mg/kg: is that where ED50 of O=C(O)c1cn(-c2ccc(F)cc2F)c2cc(N3CCC(=NO)CC3)c(F)cc2c1=O sits?
[reply] Not met

[ask] Input CON=C1CCN(c2nc3c(cc2F)c(=O)c(C(=O)O)cn3-c2ccc(F)cc2F)CC1 ; condition: ED50 strictly below 3 mg/kg. Does it hold?
[reply] Not met

[ask] API: query returns whether the compound falls strictly under 3 mg/kg in ED50. Query: CON=C1CCN(c2cc3c(cc2F)c(=O)c(C(=O)O)cn3-c2ccc(F)cc2F)CC1
[reply] Not met

[ask] Would you kindly verify if ED50 of O=C(O)c1cn(-c2ccc(F)cc2F)c2cc(N3CC/C(=N/O)C3)c(F)cc2c1=O is strictly less than 3 mg/kg?
[reply] Not met

[ask] Decide: ED50 of O=C(O)c1cn(C2CC2)c2c(F)c(N3CCC(=NO)CC3)c(F)cc2c1=O strictly below 3 mg/kg?
[reply] Not met
